Biological target: Bromodomain adjacent to zinc finger domain protein 2B (Homo sapiens) (UniProt Q9UIF8)
Sequence (Q9UIF8 whole entry, looked up, the tested form may be a part): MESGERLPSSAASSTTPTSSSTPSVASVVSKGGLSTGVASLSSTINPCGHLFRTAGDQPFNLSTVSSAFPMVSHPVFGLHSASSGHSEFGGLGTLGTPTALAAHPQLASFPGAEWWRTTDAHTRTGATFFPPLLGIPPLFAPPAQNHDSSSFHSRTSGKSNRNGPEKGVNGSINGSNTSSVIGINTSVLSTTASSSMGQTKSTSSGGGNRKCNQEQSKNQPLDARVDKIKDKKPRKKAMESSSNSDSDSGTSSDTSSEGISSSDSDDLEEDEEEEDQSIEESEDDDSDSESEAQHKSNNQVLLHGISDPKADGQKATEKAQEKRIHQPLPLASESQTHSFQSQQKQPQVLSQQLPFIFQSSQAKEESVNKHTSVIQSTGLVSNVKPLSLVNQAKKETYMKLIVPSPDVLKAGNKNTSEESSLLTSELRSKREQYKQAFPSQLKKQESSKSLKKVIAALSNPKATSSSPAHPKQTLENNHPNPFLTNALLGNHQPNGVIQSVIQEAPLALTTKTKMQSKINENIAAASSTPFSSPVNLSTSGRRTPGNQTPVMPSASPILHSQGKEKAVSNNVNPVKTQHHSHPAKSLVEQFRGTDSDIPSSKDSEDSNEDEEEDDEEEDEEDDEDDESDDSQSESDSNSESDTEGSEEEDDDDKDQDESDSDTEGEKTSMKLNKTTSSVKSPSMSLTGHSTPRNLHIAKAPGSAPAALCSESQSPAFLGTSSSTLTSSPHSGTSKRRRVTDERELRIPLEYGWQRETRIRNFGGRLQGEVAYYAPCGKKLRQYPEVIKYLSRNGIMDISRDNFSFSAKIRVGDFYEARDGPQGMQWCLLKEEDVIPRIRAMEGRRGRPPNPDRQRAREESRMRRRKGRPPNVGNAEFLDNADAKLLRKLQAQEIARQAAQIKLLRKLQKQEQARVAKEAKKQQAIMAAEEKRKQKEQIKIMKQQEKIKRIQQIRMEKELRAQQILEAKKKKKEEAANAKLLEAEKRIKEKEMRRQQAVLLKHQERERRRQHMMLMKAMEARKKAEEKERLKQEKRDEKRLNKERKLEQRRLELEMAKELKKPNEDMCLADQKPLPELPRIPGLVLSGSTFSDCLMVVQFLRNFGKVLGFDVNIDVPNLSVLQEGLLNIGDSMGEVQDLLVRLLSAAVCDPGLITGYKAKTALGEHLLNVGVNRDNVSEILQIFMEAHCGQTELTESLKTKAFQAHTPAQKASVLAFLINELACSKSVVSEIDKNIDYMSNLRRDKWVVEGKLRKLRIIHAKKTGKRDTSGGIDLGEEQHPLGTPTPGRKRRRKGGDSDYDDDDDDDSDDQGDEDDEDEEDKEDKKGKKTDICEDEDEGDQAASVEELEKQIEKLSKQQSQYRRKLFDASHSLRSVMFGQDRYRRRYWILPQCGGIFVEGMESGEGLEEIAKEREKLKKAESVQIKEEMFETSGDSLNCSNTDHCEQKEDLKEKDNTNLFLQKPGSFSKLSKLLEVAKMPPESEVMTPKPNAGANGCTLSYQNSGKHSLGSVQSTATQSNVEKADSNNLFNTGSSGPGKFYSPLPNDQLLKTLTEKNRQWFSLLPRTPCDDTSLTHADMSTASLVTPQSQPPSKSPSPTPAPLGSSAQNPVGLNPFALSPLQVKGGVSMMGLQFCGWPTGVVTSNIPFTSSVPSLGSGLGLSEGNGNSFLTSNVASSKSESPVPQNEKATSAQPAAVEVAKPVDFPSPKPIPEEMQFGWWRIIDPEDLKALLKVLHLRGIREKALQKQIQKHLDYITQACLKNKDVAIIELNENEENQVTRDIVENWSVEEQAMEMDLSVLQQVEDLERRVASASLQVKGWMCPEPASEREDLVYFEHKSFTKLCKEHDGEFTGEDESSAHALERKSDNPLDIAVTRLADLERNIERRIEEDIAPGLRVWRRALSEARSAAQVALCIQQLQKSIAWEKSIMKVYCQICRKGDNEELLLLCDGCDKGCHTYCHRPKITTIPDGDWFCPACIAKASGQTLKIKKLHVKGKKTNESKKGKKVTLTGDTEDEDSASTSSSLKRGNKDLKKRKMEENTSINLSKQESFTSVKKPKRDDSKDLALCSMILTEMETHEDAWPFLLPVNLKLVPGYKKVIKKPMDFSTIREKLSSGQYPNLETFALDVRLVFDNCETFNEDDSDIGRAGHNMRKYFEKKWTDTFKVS
Assay: qHTS Assay for Inhibitors of BAZ2B; further: nearly all actives have a fitted effect of over 60% in size
Conditions: AlphaScreen BAZ2B-H3K14Ac peptide displacement; series mostly up to 114 µM
Among all 360,000 compounds or so, about 16,000 (4.4%) were called active. Inconclusive results (about 9%) are left out. The call rests on the fitted dose curve; in most records, active means well fitted inhibition curve with a large enough effect; inconclusive means small, poorly fitted or top-dose-only effect; inactive means no such curve, though single readings can be large or run the other way. This excerpt belongs to a sample that is enriched for actives.
Field 'call' accepts True = active, False = inactive

MOLECULE: COc1ccc(CCNC(=O)c2ccc(-n3c(C)cc4c3CCCC4)cc2)cc1OC
LABEL CLASS: False
--
MOLECULE: CC(=O)Nc1cccc(NC(=O)CSc2cn(CC(=O)N3CCCC3)c3ccccc23)c1
LABEL CLASS: False
--
MOLECULE: Cc1ccc(CCNC(=O)c2ccc3c(c2)N(Cc2cc(C)ccc2C)C(=O)c2ccccc2S3=O)cc1 (centres undefined)
LABEL CLASS: False

Check the results log: what was the call for COc1ccccc1OCC(=O)O/N=C(\N)c1ccccn1 ? False

Check the results log: what was the call for Cc1cc(C)cc(NC(=O)CSc2nc3nccnc3c(=O)n2CCc2c[nH]c3ccccc23)c1 ? False

Check the results log: what was the call for CCC(C)NC(=O)CSC1=Nc2ccccc2C2=NC(CCC(=O)NCc3ccco3)C(=O)N12 (centres undefined) ? False

Check the results log: what was the call for CC(C)S(=O)(=O)c1oc(-c2ccc(F)cc2)nc1S(=O)(=O)c1ccc(F)cc1 ? False

Check the results log: what was the call for Cc1ccc(CNS(=O)(=O)c2ccc(C(=O)N(C)C)s2)cc1 ? False

Check the results log: what was the call for CC(C)c1ccc(S(=O)(=O)Nc2ccc(O)c(Sc3nc4ccccc4s3)c2)cc1 ? True

Check the results log: what was the call for CCOc1cc(/C=C(\C#N)c2nc(-c3cccs3)c(NC(C)=O)s2)ccc1O ? False
